assay-name: AUC(0 to 8 hrs) in Sprague-Dawley rat at 1 mg/kg, po administered through cassette dosing by LC/MS/MS analysis
Assay type: ADME, organism-based
Set-up: dose 1 mg/kg, route oral
setup-conditions: in vivo
Property: AUC(0-t) at 6 h; scope: individual molecules
Supply the numeric figure in ng·h/mL, leaving out any unit text.

{"smi": "Cc1c2cc(-n3ccc(OCc4ccc(Cl)cc4)cc3=O)ccc2nn1C1CC1", "reading-unit": "ng·h/mL", "reading": 1810}

Please examine the following record next.
Inquiry: Kindly indicate its recorded AUC(0-t) at 6 h. Item: Cc1c2cc(-n3ccc(OCc4csc(C(F)(F)F)c4)cc3=O)ccc2nn1C1CC1
Reply text: 2880

// provenance: ChEMBL document CHEMBL3792310
